The measured values listed here are drawn from the RepoRT retention time repository (doi:10.1007/s00216-013-6954-6).

- EXPERIMENT_NOTES: RP, Waters ACQUITY UPLC HSS T3, 150 × 2.1 mm, 1.8 µm; A: water + 0.1% formic acid; B: acetonitrile + 0.1% formic acid; gradient (min/%B) 0/5 1/5 16/95 18/95
- CONDITION_CONTEXT: stereoisomer not certain
PROPERTY_NAME: LC retention time (min)

COMPOUND: O=c1[nH]c(=O)c2[nH]c(=O)[nH]c2[nH]1
DISPLAY_UNIT: min
ENDPOINT_VALUE: 0.643

COMPOUND: NC(Cc1ccccc1)C(=O)NCC(=O)O (stereo not drawn)
DISPLAY_UNIT: min
ENDPOINT_VALUE: 1.7

COMPOUND: Cn1c(=O)c2c(ncn2C)n(C)c1=O
DISPLAY_UNIT: min
ENDPOINT_VALUE: 3.46

COMPOUND: CC(C(=O)O)C(=O)O
DISPLAY_UNIT: min
ENDPOINT_VALUE: 0.733

COMPOUND: CC(CCC(=O)O)C1CCC2C3CCC4CC(O)CCC4(C)C3CC(O)C12C (stereo not drawn)
DISPLAY_UNIT: min
ENDPOINT_VALUE: 10.7

COMPOUND: CCC(C)C(N)C(=O)O (stereo not drawn)
DISPLAY_UNIT: min
ENDPOINT_VALUE: 0.795

COMPOUND: O=C(O)C1CCCN1 (stereo not drawn)
DISPLAY_UNIT: min
ENDPOINT_VALUE: 0.482

COMPOUND: O=C(O)c1c[nH]c2ccccc12
DISPLAY_UNIT: min
ENDPOINT_VALUE: 4.7

COMPOUND: CC(C)CC(N)C(=O)NC(Cc1ccccc1)C(=O)O (stereo not drawn)
DISPLAY_UNIT: min
ENDPOINT_VALUE: 4.2

COMPOUND: CCC(C)C(N)C(=O)NC(C(=O)O)C(C)CC (stereo not drawn)
DISPLAY_UNIT: min
ENDPOINT_VALUE: 3.1

(P) CC(C)CC(NC(=O)C(N)Cc1ccccc1)C(=O)O (stereo not drawn)
(Q) Nc1nc2c(ncn2C2OC(CO)C(O)C2O)c(=O)[nH]1 (stereo not drawn)
Choose between P and Q : whose measured LC retention time value is numerically larger? Provide the label of your selected option as the answer.
P
(P: 4.1 min, Q: 1.1 min)

(P) CC(C)C(NC(=O)C(N)Cc1ccccc1)C(=O)O (stereo not drawn)
(Q) Nc1ccc(C(=O)O)cc1
Choose between P and Q : whose measured LC retention time value is numerically larger? Provide the label of your selected option as the answer.
P
(P: 3 min, Q: 1.95 min)

* * *

- EXPERIMENT_NOTES: RP, Waters ACQUITY UPLC HSS T3, 100 × 1 mm, 1.8 µm; A: water + 0.1% formic acid, pH 3; B: acetonitrile + 0.1% formic acid, pH 3; gradient (min/%B) 0/5 1/5 16/95 18/95 20/5
- CONDITION_CONTEXT: stereoisomer not certain
PROPERTY_NAME: LC retention time (min)

The examples below pair each entry with its known result.
MOLECULE: O=C(O)CCCCCC(=O)O
DISPLAY_UNIT: min
LC retention time: 3.47
//
MOLECULE: CCC(C)C(N)C(=O)NC(CC(C)C)C(=O)O (stereo unspecified)
DISPLAY_UNIT: min
LC retention time: 3.4
//
MOLECULE: CSCCCCCCCC(N)C(=O)O (stereo unspecified)
DISPLAY_UNIT: min
LC retention time: 4.6

(P) CSCCC(N)C(=O)O (stereo unspecified)
(Q) O=C(O)c1c[nH]c2ccccc12
(R) CC(CCC(=O)O)C1CCC2C3CCC4CC(O)CCC4(C)C3CC(O)C12C (stereo unspecified)
Let's sort these by LC retention time, smallest first. Go ahead? # the answer lists labels in the order requested
P, Q, R

* * *

- EXPERIMENT_NOTES: RP, Waters ACQUITY UPLC HSS T3, 100 × 1 mm, 1.8 µm; A: water + 0.1% formic acid, pH 3; B: acetonitrile + 0.1% formic acid, pH 3; gradient (min/%B) 0/5 1/5 16/95 18/95 20/5
- CONDITION_CONTEXT: stereoisomer not certain
PROPERTY_NAME: LC retention time (min)

The examples below pair each entry with its known result.
MOLECULE: COc1cc2ccc(=O)oc2cc1OC1OC(CO)C(O)C(O)C1O (configuration not stated)
DISPLAY_UNIT: min
LC retention time: 3.3
//
MOLECULE: CCC(C)C(N)C(=O)NC(Cc1ccccc1)C(=O)O (configuration not stated)
DISPLAY_UNIT: min
LC retention time: 3.9
//
MOLECULE: Nc1ncnc2nc[nH]c12
DISPLAY_UNIT: min
LC retention time: 0.525
//
MOLECULE: CC(C)C(N)C(=O)NC(Cc1ccccc1)C(=O)O (configuration not stated)
DISPLAY_UNIT: min
LC retention time: 3.3
//
MOLECULE: COC1C(O)C(CO)OC1n1cnc2c(N)ncnc21 (configuration not stated)
DISPLAY_UNIT: min
LC retention time: 1.1

(P) CSCCCCCCCCC(N)C(=O)O (configuration not stated)
(Q) CCC(C)C(NC(=O)C(N)CC(C)C)C(=O)O (configuration not stated)
(R) CCC(C)C(N)C(=O)O (configuration not stated)
(S) Nc1ccc(C(=O)O)cc1
(T) NCCS(=O)(=O)O
Put the items in sequence by LC retention time, from largest down. # the answer lists labels in the order requested
P, Q, S, R, T

* * *

- EXPERIMENT_NOTES: RP, Waters ACQUITY UPLC HSS T3, 100 × 1 mm, 1.8 µm; A: water + 0.1% formic acid, pH 3; B: acetonitrile + 0.1% formic acid, pH 3; gradient (min/%B) 0/5 1/5 16/95 18/95 20/5
- CONDITION_CONTEXT: stereoisomer not certain
PROPERTY_NAME: LC retention time (min)

The examples below pair each entry with its known result.
MOLECULE: NC(=O)NCCCC(N)C(=O)O (stereo not given) [Citrulline]
DISPLAY_UNIT: min
LC retention time: 0.457

MOLECULE: CC(CCC(=O)O)C1CCC2C3C(O)CC4CC(O)CCC4(C)C3CCC12C (stereo not given) [Chenodeoxycholic acid]
DISPLAY_UNIT: min
LC retention time: 10.5

MOLECULE: CCC(C)C(NC(=O)C(N)Cc1ccccc1)C(=O)O (stereo not drawn) [H-Phe-Ile-OH]
DISPLAY_UNIT: min
LC retention time: 3.8

MOLECULE: CC(CCC(=O)O)C1CCC2C3C(O)CC4CC(O)CCC4(C)C3CC(O)C12C (stereo not given) [Cholic acid]
DISPLAY_UNIT: min
LC retention time: 8.94

MOLECULE: O=C(O)Cc1ccccc1 [Phenylacetic acid]
DISPLAY_UNIT: min
LC retention time: 3.6

(A) CC12CCC(=O)C=C1CCC1C2C(=O)CC2(C)C1CCC2(O)C(=O)CO (stereo not given) [Cortisone]
(B) Cc1cn(C2CC(O)C(CO)O2)c(=O)[nH]c1=O (stereo not given) [Thymidine]
(C) CC(C(=O)O)C(=O)O [Methylmalonic acid]
(D) CC(C)CC(N)C(=O)N1CCCC1C(=O)O (stereo not drawn) [H-Leu-Pro-OH]
Let's sort these by LC retention time, smallest first. Go ahead? # the answer lists labels in the order requested
C, B, D, A
(C: 0.733 min, B: 1.6 min, D: 2.6 min, A: 6.61 min)

* * *

- EXPERIMENT_NOTES: RP, Waters ACQUITY UPLC HSS T3, 150 × 2.1 mm, 1.8 µm; A: water + 0.1% formic acid; B: acetonitrile + 0.1% formic acid; gradient (min/%B) 0/5 1/5 16/95 18/95
- CONDITION_CONTEXT: stereoisomer not certain
PROPERTY_NAME: LC retention time (min)

The examples below pair each entry with its known result.
COMPOUND: CSCCCCCCCC(N)C(=O)O (stereo unspecified)
ENDPOINT_VALUE: 4.6

COMPOUND: NC(N)=NCCCC(N)C(=O)O (stereo unspecified)
ENDPOINT_VALUE: 0.413

COMPOUND: O=Cc1c[nH]c2ccccc12
ENDPOINT_VALUE: 4.8

(a) CC(C)CC(NC(=O)C(N)C(C)C)C(=O)O (stereo unspecified)
(b) CC(CCC(=O)NCCS(=O)(=O)O)C1CCC2C3C(O)CC4CC(O)CCC4(C)C3CC(O)C12C (stereo unspecified)
Would you kindly point out which of a and b has the smaller LC retention time figure? Provide the label of your selected option as the answer.
a
(a: 2.7 min, b: 7.57 min)

(1) NC(=O)NCCCC(N)C(=O)O (stereo unspecified)
(2) CC(C)CC(N)C(=O)NC(Cc1ccc(O)cc1)C(=O)O (stereo unspecified)
Would you kindly point out which of 1 and 2 has the smaller LC retention time figure? Provide the label of your selected option as the answer.
1

(I) CCCCCCCCC=CCCCCCCCC(=O)OCC(O)COP(=O)(O)OCC[N+](C)(C)C (stereo unspecified)
(II) CCC(C)C(NC(=O)C(N)CC(C)C)C(=O)O (stereo unspecified)
Would you kindly point out which of I and II has the smaller LC retention time figure? Provide the label of your selected option as the answer.
II
(II: 3.3 min, I: 12 min)

(P) Cc1cc2nc3c(=O)[nH]c(=O)nc-3n(CC(O)C(O)C(O)CO)c2cc1C (stereo unspecified)
(Q) CC(C)CC(N)C(=O)N1CCCC1C(=O)O (stereo unspecified)
(R) O=c1cc[nH]c(=O)[nH]1
Put the items in sequence by LC retention time, from largest down. # the answer lists labels in the order requested
P, Q, R
(P: 3.92 min, Q: 2.62 min, R: 0.638 min)
